Measurement record for PI3K α (Homo sapiens); quantity recorded: IC50.

Nc1ncnc2c1c(-c1cn[nH]c1)nn2Cc1cc2cccc(F)c2c(=O)n1-c1ccccc1F    > 10 µM

Query: Which IC50 value belongs to `CCc1ccccc1-n1c(Cn2nc(-c3cc(O)cc(F)c3)c3c(N)ncnc32)cc2cccc(C)c2c1=O` ?
Reply: < 10 µM

Query: Which IC50 value belongs to `CNc1ncc(Cl)c(N[C@@H](C)c2cc3cccc(C)c3c(=O)n2-c2ccccc2)n1` ?
Reply: > 10 µM

Query: Which IC50 value belongs to `Cc1ccccc1-n1c(Cn2nc(-c3cccc(O)c3)c3c(N)ncnc32)cc2ccccc2c1=O` ?
Reply: > 10 µM

Cited source: patent US20140120083A1
